- assayExplanation: NCI Yeast Anticancer Drug Screen. Data for the rad50 strain (AID 155);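 note: 0% = growth of vehicle-only cultures of the same strain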
- testSettings: S. cerevisiae rad50 strain growth inhibition; at 50.0 µM (retest, dose inferred, filed as 5.0); active compounds read high
The panel holds about 79,000 compounds, 15% with a hit somewhere; the sample as a whole holds those more often. Calls of active or inactive are those of the source. Cut-off read from the data, not from the text of the source: active = growth inhibition above about 70%; inactive = the rest.
Catalogue of growth inhibition values

Observe how each entry below is paired with its result.
Per the record, CC(=O)OCC1OC2OC(=O)NC2C(OC(C)=O)C1OC(C)=O (configuration not stated) has growth inhibition of -1% (inactive)

For this compound ( Cc1cc(C)c(NC(=S)NC(=O)c2ccccc2)cc1C ), measured growth inhibition is -4% (inactive)

// recorded growth inhibition for CCCCCCCCCCCCNC(C)=O : 93% (active)

New cases:
Reported growth inhibition ( CC1SC2(C(=O)Nc3ccc(Cl)cc32)N(c2ccc(Cl)cc2)C1=O (configuration not stated) ) = -1% (inactive)

The reported growth inhibition of the compound Cc1ccc(NC(c2ccccc2)c2ccc3cccnc3c2O)cc1 (configuration not stated) was 29% (inactive)

Note to self: growth inhibition recorded for CCCCOP(=O)(CCCP(=O)(OCCCC)OCCCC)OCCCC was 66% (inactive)

So, CCOC(=O)C1=C(C)NC(C)=C(C(=O)OCCNC(=O)c2ccc(N=[N+]=[N-])cc2)C1c1ccccc1C(F)(F)F (configuration not stated) ? Its growth inhibition was 18% (inactive)
